System: MS2 coat protein
assay-notes: apparent KD of MS2 coat protein; designed switch direction (-1 OFF switch, 1 ON switch): -1; higher = weaker reporter binding
run-parameters: input ligand: FMN 200 uM
recorded-metric: apparent KD of MS2 coat protein (nM)
Enter your answer as a number in nM; do not include the unit.

Solved entries:
Query block: Requested read-out: apparent KD of MS2 coat protein. Entry: GAUCAACAAUCGAGCGGAUACAUGAGGAUCACCCAUGUCCGUAGUCGGGUAAAUAACAAGCUUUUUUCGCCGUCCCU [Eternabot (Original) Solution 42] (Eterna round: R97, puzzle: Sensor, turn-off variant 1)
Result block: 15.4

Query block: Then this sequence: GCCCGGCCUGUAGGAUAUGGUUCCGUUUCGGUUCCAGAAGGACACGAGGAUACAUGAGGAUCACCCAUGUGCUCGUCACCGGGC [salish99_ExNG1_r04_403] (Eterna round: R96, puzzle: Exclusion NG 1)
Result block: 8.67

Query block: Then this sequence: GUAGAGUCAGGAUAUACGAGAUCGAAAGAUCAGUGGUCCUUACAUGAGGAUCACCCAUGUAGAAGGGACUCUAC [Omei mod 12 to Eli's favorate candidate (ch.parushev)] (Eterna round: R97, puzzle: Exclusion 2)
Result block: 39.6

Then there is this sequence:
Query block: # input sequence: ACAUGAGGAUCACCCAUGUAAACAUGAUGGCUGAUGUAGAGCUAGGAUAUGAGUGACUAUCUAUCUCAGAAGGAGCUUGACUGG [Deportation 45 - Jieux - Exclusion NG 3] (Eterna round: R96, puzzle: Exclusion NG 3) ; wanted: its apparent KD of MS2 coat protein
Result block: 26

----------
System: MS2 coat protein
assay-notes: apparent KD of MS2 coat protein; higher = weaker reporter binding
run-parameters: Eterna round: R107; input ligand: tryptophan 2.4 mM
Measured apparent KD of MS2 coat protein of individual entries
Write it as a number; the unit nM goes unstated.

Query block: // apparent KD of MS2 coat protein lookup, key: UACUUGCUGACGGCCGCCACUAGAACAUGAGGAUCACCCAUGUAUGGCGGCCGAAUCCUCAUGACUAGGACCGGGUCAGCAAGAU [(Trp1)-(Ms2)-(T)'-(M)'-(Trp2)_Design2]
Result block: 8.22

Others:
Query block: Given AGUGUAUCCAUCGAUACCAGCCACCACCGAUAGACCACAUGAGGAUCACCCAUGUUGGGUGGCCCUUGGCAGCGGUGGCUGUGUA [Same State - Theophylline B Attempt #2 (HarryS)] , state its recorded apparent KD of MS2 coat protein.
Result block: 546

Query block: Here is the next sequence: GCACCAGGUACGGAUACCAGAGCAAGCCAAAUGAGUGAACUUGAGGAUCACCCAAGUUUGCUCCCUUGGCAGCCGUACCUGGUGC [ETB NP+V+V2 #12 Diff Apt, +-Same Structure]
Result block: 8.49

Query block: // repeat for UGGGUAGCAUAGAUUGAUAGCUACACUGAAGGAGCGAGGAUAACCUCAGGUAGGUCGCAGACAUGAGGAUCACCCAUGUAGAUGG [Same State Arginine A GF17] and report
Result block: 209

Query block: Again, but for GAUAUGAUAAGAAGGAGCGUCGAAAAUGGGUAAACAUGAGGAUCACCCAUGUAAAGGGAACGACAGGUAGGUCGCUUAUUAUAUC [AstromonsSSArgB#19]
Result block: 134

----------
Test system: K4 kissing-loop RNA reporter;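 further: bound reporter read as fluorescence of individual clusters on recovered sequencing chips by microscopy, with normalized cluster intensities fitted with a binding model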
assay-notes: apparent KD of K4 kissing-loop reporter; higher = weaker reporter binding
run-parameters: Eterna round: R107; input ligand: theophylline 20 uM
# key: entry, value: apparent KD of K4 kissing-loop reporter
Report the figure in nM without appending any unit label.

Answered examples (4):
Query block: Can you share its apparent KD of K4 kissing-loop reporter? I mean this sequence: GUGCAAAGCACCGGCACGAGCAGCCUAAAGGAGGAUAUGACGAAAGUCAGAAGGUCUAGUGAUGUUAGGCCUUGCUUGAGUCGAA [Omei KL FMN A Exc B v3]
Result block: 405

Query block: Next sequence up: ACUUGCACAAAGUCGUCAACCGGUGAAUCAAAGGAUAUUAAUUCACUAAGAAGGUUGAGCCGAGUGAUGUUCGACUGUAAGUCCC [theeternabot_exclusion_KL_FMN_A_34]
Result block: 506

Query block: # repeat for AAACGUUGGUCUGAUACCAGCUUGAUCGGUAAACGAUCUACUGGAGUGAUGUUCCUAAAUAGCCCUUGGCAGCAGACCGACGAAA [MAT - Same State Theophlline B - Mod of Eli - D7]
Result block: 118

Query block: Would you mind doing CGCAAGCAGCCAGUGAUGUUGGCUGCCUUGCGAGGACCGGUACGGCCGCCACUCGAAGGCAGCUACUGGUAAACCGUCUAACGGA [Atere] as well?
Result block: 90.7

More entries:
Query block: Need apparent KD of K4 kissing-loop reporter of CUGGGUUGACGAAAAGUCAACAAAAGAGAAGGAGCGCACGAAAGUGCAGGUAGGUCGCUCAAUCCAGUGAUGUUGGGUCGUCCAG [#OpenEnded 11 #K4Late] , thanks.
Result block: 285

Query block: Thanks! And GAGGUACAGGCGGCCGCCACUAGUGAUGUUAGUGAUAGAAGAUAUAGUAAAUAUCGGCAUUUAGAUAGGACCGGGCCUGGUGGUG [ffdfcmullin] ?
Result block: 286

Query block: # repeat for AGGUUUUGAUUAGGAUAUGCACUGAGGAGGAGAAUAUAGUGAUGUUAUAUAAGAGGAAGGAGAAGAGUAGAAGGGAUUGAGGUUU [SSFMNB.Q]
Result block: 197

----------
System: MS2 coat protein
assay-notes: apparent KD of MS2 coat protein; designed switch direction (-1 OFF switch, 1 ON switch): 1; higher = weaker reporter binding
run-parameters: input ligand: none
Returns rule met if the recorded apparent KD of MS2 coat protein is greater than or equal to 50 nM, and rule not met otherwise.

Consider the following illustrative entries.
Query block: Does GUUACAUGAGGAUCACCCAUGUAUGUGUGGGAGUAAGUGUCUUAGGAUAUCUAGUAUGUAAUUUAAGAGAAGGAAGAUUGUUGU [JMF's solution 56] (Eterna round: R96, puzzle: Same State NG 3) have a reported apparent KD of MS2 coat protein of at least 50 nM?
Result block: rule met

Query block: Now the same for UACAUACGCGGAGGAUAUGGGCGAGGCGCAGAGGUCUGCGUCAAAACAUGAGGAUCACCCAUGUCCCAGAAGGCCGCGUAAACU [Enisen] (Eterna round: R96, puzzle: Same State NG 2)
Result block: rule met

Query block: Follow-up item: UGCCUGAGUCGAGGAUAUUAUGGAUCCUUUAAUACAUGAGGAUCACCCAUGUAAUUAAUUAUACAUGAGAAGGUGACUCAGGCU [SSNG2/11-B3] (Eterna round: R96, puzzle: Same State NG 2)
Result block: rule met

Query block: Repeat with UGUUGUUAAUUAGGAUAUGGACACAUGAGGAUCACCCAUGUAAUGUCGAUGCUAUGUGGACACGUUCAGAAGGAAUGGCUAACA [SameState NG2 #92] (Eterna round: R96, puzzle: Same State NG 2)
Result block: rule met

Query block: What do you get for GUACAGAUUAUAGGAUAUCACGUCGAAUAGACGUGAGAAGGAUAAUCACACAUGAAUAUUAAUACAUGAGGAUCACCCAUGUAC [SSNG1/17-A1] (Eterna round: R96, puzzle: Same State NG 1) ?
Result block: rule not met

Next:
Query block: Determine whether measured apparent KD of MS2 coat protein meets or exceeds 50 nM for AGAGGAGGCGCAGGAUAUACGACGGAGGACGUGGUAGAAGGGUGCAUGCGAUAACAUGAGGAUCACCCAUGUACCGCGCGACGA [AK SSNG1-V2-17] (Eterna round: R96, puzzle: Same State NG 1)
Result block: rule met

Query block: Another: UUAAUGAAGUAAGGAUAUACAUGAGGAUCACUCGUAGAAGGUACUAUACAUGAGGAUCACCCAUGUUCCGGUCAGAAGACUGGA [Mat - Same State NG 1 - JL mod - D3] (Eterna round: R96, puzzle: Same State NG 1)
Result block: rule met

Query block: And then CUCACUUGGGUAGGAUAUCUAGGAUAUGGGAAAGACUAAGUCUGUAGGUCACCUAACCCAGAUGGAGAGAAGGACCCAACACUC [pwkr ssNG2 2FMN + F9.38] (Eterna round: R96, puzzle: Same State NG 2) , what is it?
Result block: rule not met

Query block: Proceed to AACCAGGCCAGAGGAUAUGGGAAAGGAAGUGUACUAGAAGGCUGCAGCCUGAACAAACAUGAGGAUCACCCAUGUAAAACGGUG [PowerStrip SSNG 1.27] (Eterna round: R96, puzzle: Same State NG 1)
Result block: rule met

Query block: Same lookup for CUGAGAUGUCAAGGAUAUCACGUCGAUUAGACGUGAGAAGGUGAUCUGCACAUGAGGAUCACCCAUGUGUUACAUGGAAUUCAG [Brourd's SSNG1/1-A2 mod 12] (Eterna round: R96, puzzle: Same State NG 1) , please.
Result block: rule met
